System: NCI-H441
Protocol Summary: Antiproliferative activity against human NCI-H441 cells assessed as reduction in cell viability
Type: functional, cell-based
Documented IC50 across a set of molecules
Your answer should be a plain number; it is taken to be in µM.

>>> reported("CCOC(=O)c1sc(N2N=C(c3ccc(Cl)cc3Cl)CC2c2ccc(OC)cc2)nc1C (configuration not stated)")
4.76

Now consider the entry below.
Q: Please report IC50 for the following molecule: COc1ccc(C2CC(c3ccc(Cl)cc3Cl)=NN2c2nc(C)c(C(=O)Nc3ccccc3)s2)cc1OC (configuration not stated)
Ans: 3.8

---

Protocol Summary: Acute toxicity in ip dosed Swiss albino mouse assessed as lethal dose
Format: organism-based
Run Conditions: in vivo, read-out: ALD50
Readout Type: LD50

Q: Please report LD50 for the following compound: `CCOc1ccc(Nc2nnc3c4c(cccc24)NC(=S)N3Cc2ccccc2)cc1`
Ans: > 800 mg/kg
